# MIC listing for each entry below
test system: Escherichia coli; assay: Antibacterial activity against Escherichia coli incubated for 24 hrs by two fold serial dilution method; assay type: functional

>  <compound_smiles>
CC(=O)/C(=C/c1cn(CC(=O)N2CCCCC2)c2cc(Cl)ccc12)n1cc([N+](=O)[O-])nc1C

>  <result_units>
µg/mL

>  <MIC>
64

$$$$
>  <compound_smiles>
C#CCn1cc(/C=C(/C(C)=O)n2cc([N+](=O)[O-])nc2C)c2ccccc21

>  <result_units>
µg/mL

>  <MIC>
512

$$$$
>  <compound_smiles>
CC(=O)/C(=C/c1cn(CC(=O)N2CCN(Cc3ccc(Cl)cc3Cl)CC2)c2ccccc12)n1cc([N+](=O)[O-])nc1C

>  <result_units>
µg/mL

>  <MIC>
512

$$$$
>  <compound_smiles>
CC(=O)/C(=C/c1cn(CC(=O)N2CCN(Cc3ccc(F)cc3)CC2)c2cc(Cl)ccc12)n1cc([N+](=O)[O-])nc1C

>  <result_units>
µg/mL

>  <MIC>
512

$$$$
